assay: qHTS of pediatric cancer cell lines to identify multiple opportunities for drug repurposing: Primary screen for SK-N-SH cells (AID 1347098); conditions: SK-N-SH viability, CellTiter-Glo luminescence, 48 h; series mostly up to 57 µM; further: nearly all actives have a fitted effect of over 65% in size
Records with an inconclusive call do not appear. The source made the active and inactive calls. The call rests on the fitted dose curve; in most records, active means well fitted cell-killing curve with a large enough effect; inconclusive means small, poorly fitted or top-dose-only effect; inactive means no such curve, though single readings can be large or run the other way.
Use one of these outcomes when replying: active, inactive

| compound | assigned_class |
| --- | --- |
| CCn1c(-c2nonc2N)nc2cncc(CNC3CCNCC3)c21 | active |

query: Could you please tell me the result logged for `CC[C@H](CC#N)OC(=O)N[C@@H](C)c1cccc(NC(=O)Nc2ccc(-c3cnco3)c(OC)c2)c1` in this assay?
result: inactive

query: Continue with `COc1cc2c(cc1Cc1cccc(Cl)c1F)c(=O)c(C(=O)O)cn2[C@H](CO)C(C)C`
result: inactive

query: Continue with `COc1ccc(CCC(=O)Nc2nc3ccc(Cl)cc3s2)cc1OC`
result: active

query: Continue with `NC(N)=Nc1nc(CSCCC(N)=NS(N)(=O)=O)cs1`
result: active

query: Continue with `CCNC(=O)[C@H]1O[C@@H](n2cnc3c(N)nc(NCCc4ccc(CCC(=O)O)cc4)nc32)[C@H](O)[C@H]1O`
result: inactive

query: Continue with `C[C@@H](NC(=O)c1ncnc(N)c1Cl)c1ncc(C(=O)Nc2cc(C(F)(F)F)c(Cl)cn2)s1`
result: active

query: Continue with C=C[C@@H]1CN2CCC1C[C@@H]2C(O)c1ccnc2ccc(OC)cc12 (some centres undefined)
result: inactive

query: Continue with CCCCN(CCCC)CC(O)c1cc(Cl)cc2c1-c1ccc(Cl)cc1C2=Cc1ccc(Cl)cc1 (centres undefined)
result: inactive
